molecular target: Rho-associated protein kinase 2 (Homo sapiens); assay: Inhibition of ROCK2 (unknown origin) using C-terminus recombinant MBS (654-880 residues) as substrate incubated for 30 mins in presence of ATP by ELISA
Sequence (O75116 whole entry, the tested form may be a part): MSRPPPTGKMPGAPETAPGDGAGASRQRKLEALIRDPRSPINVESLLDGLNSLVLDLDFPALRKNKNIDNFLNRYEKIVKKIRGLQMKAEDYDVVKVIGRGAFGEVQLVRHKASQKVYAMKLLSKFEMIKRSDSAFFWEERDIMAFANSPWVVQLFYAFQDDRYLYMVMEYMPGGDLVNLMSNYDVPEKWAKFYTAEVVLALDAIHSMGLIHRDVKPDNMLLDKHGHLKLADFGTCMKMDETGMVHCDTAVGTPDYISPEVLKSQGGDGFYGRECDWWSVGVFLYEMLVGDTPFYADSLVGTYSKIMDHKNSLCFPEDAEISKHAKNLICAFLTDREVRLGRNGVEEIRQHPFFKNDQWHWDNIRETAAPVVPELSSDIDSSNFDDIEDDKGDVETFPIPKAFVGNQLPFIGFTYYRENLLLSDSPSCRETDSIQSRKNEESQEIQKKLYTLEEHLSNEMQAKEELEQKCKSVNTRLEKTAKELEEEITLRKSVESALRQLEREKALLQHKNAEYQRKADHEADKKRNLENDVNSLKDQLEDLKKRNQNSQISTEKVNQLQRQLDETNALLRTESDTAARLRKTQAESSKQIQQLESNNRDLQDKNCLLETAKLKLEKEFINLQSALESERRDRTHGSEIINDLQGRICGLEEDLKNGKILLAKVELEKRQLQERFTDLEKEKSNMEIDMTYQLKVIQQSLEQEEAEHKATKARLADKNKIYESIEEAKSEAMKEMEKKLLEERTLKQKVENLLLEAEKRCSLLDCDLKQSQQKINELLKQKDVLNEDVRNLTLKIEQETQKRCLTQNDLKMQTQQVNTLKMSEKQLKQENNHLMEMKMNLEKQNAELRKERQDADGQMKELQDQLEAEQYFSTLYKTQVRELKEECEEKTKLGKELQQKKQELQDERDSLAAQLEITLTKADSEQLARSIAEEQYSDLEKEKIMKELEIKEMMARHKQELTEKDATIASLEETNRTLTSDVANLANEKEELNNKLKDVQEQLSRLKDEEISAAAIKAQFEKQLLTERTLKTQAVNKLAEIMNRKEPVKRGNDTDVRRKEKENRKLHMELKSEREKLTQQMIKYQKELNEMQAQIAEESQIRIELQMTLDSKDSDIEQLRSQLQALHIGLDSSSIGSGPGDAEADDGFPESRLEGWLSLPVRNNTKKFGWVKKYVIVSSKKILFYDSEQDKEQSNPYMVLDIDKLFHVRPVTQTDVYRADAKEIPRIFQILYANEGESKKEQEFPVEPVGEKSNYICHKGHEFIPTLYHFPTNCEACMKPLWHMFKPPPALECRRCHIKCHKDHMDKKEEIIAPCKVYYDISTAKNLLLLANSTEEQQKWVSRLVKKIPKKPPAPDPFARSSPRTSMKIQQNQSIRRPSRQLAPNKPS
pIC50: −log10 of the molar value.
measurement type: pIC50

Here's what some known entries look like.
CN(C)C(=O)Cc1sc(NC(=O)C2COc3ccccc3O2)nc1-c1ccncc1 (stereo not given) | 5.05
O=C(Nc1nc(-c2ccncc2)c(N2CCOCC2)s1)C1COc2ccccc2O1 (stereo not given) | 6.89

(1) CN(C)Cc1sc(NC(=O)C2COc3ccccc3O2)nc1-c1cccnc1 (stereo not given)
(2) O=C(Nc1nc(-c2cccnc2)c(CN2CCOCC2)s1)C1COc2ccccc2O1 (stereo not given)
(3) CN(C)CCc1sc(NC(=O)C2COc3ccccc3O2)nc1-c1ccncc1 (stereo not given)
input: Order by pIC50, ascending. Could you list the labels in the order requested?
output: 1, 2, 3

---

target: Rho-associated protein kinase 2 (Homo sapiens); assay: Inhibition of ROCK2 (unknown origin) using C-terminus recombinant MBS (654-880 residues) as substrate at 10 uM incubated for 30 mins in presence of ATP by ELISA relative to control
Sequence (O75116 whole entry, looked up, the tested form may be a part): as the sequence (O75116 whole entry, the tested form may be a part) above
measurement type: inhibition (%)

Observe how each entry below is paired with its result.
O=C(Nc1nc(-c2ccncc2)cs1)C1COc2ccccc2O1 (configuration not stated) | 91.3
O=C(Nc1nc(-c2cccnc2)c(CN2CCCC2)s1)C1COc2ccccc2O1 (configuration not stated) | 61.3
O=C(Nc1nc(-c2ccncc2)c(CN2CCCCC2)s1)c1ccncc1 | 48.2
O=C(Nc1nc(-c2ccncc2)c(CN2CCOCC2)s1)c1cccnc1 | 52.2
O=C(Nc1nc(-c2ccncc2)c(CN2CCOCC2)s1)c1ccncc1 | 58.1

(I) O=C(Nc1nc(-c2cccnc2)c(CN2CCCCC2)s1)c1cccnc1
(II) CN(C)Cc1sc(NC(=O)C2COc3ccccc3O2)nc1-c1cccnc1 (configuration not stated)
input: Consider I and II . Which of these has its inhibition at a higher number? Bench note: the answer is the label of the chosen record.
output: II

(1) O=C(Nc1nc(-c2ccncc2)c(CN2CCCC2)s1)c1ccncc1
(2) O=C(Nc1nc(-c2ccncc2)c(CN2CCOCC2)s1)C1COc2ccccc2O1 (configuration not stated)
input: Endpoint returns whichever of 1 and 2 has the numerically higher inhibition. Write down the label attached to your selection.
output: 2
(2: 87.4%, 1: 47.6%)

(a) CN(C)Cc1sc(NC(=O)c2ccncc2)nc1-c1cccnc1
(b) CN(C)C(=O)Cc1sc(NC(=O)C2COc3ccccc3O2)nc1-c1ccncc1 (configuration not stated)
input: # argmax over inhibition for candidates a and b Identify your selection by its label.
output: b
(b: 56.9%, a: 35.3%)
